meta.source: ChEMBL document CHEMBL1208785

# TEST TARGET: Neuronal acetylcholine receptor subunit alpha-7 (Rattus norvegicus) (UniProt Q05941)
# Sequence (Q05941 whole entry): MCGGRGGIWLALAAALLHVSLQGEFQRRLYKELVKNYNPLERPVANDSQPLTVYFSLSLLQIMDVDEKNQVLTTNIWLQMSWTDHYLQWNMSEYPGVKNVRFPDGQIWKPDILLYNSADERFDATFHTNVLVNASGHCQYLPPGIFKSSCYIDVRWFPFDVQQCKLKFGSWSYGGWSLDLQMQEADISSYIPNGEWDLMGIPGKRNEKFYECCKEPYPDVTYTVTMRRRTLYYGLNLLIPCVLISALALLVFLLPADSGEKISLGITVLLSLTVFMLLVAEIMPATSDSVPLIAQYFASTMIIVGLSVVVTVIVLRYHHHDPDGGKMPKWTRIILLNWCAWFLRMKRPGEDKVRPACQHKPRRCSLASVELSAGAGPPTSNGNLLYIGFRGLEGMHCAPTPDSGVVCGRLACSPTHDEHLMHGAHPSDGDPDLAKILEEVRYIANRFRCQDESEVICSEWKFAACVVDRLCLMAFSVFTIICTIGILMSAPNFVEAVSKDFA
# PROTOCOL TEXT: Displacement of [125I]alpha-bungarotoxin from alpha7 nicotinic acetylcholine receptor in rat brain membrane at 10 uM
# Assay type: cell membranes
Decision: inhibition >= 20% yields satisfied, all other cases yield not satisfied.

CC(C)CN1CCC(CN(C)C(=O)c2cn(Cc3cc(F)ccc3F)nn2)CC1; satisfied
Cc1ccc(-c2c(C(=O)NC3CCN(C)CC3)cnn2-c2ccccc2)cc1; satisfied

# ---- query molecule ----
**Query** Determine whether measured inhibition meets or exceeds 20% for O=C(NCC1CCN(CCc2ccccc2)CC1)c1cn(Cc2ccc(Cl)cc2)nn1
**Result** not satisfied
